meta.source: ChEMBL document CHEMBL4765473

# protocol_notes: Apparent permeability from apical to basolateral side in MDCK-MDR1 cells
# Format: ADME, cell-based, Canis lupus familiaris
# experimental_context: dog
# reported Papp A→B; entries follow
Note: state the figure and append the unit.

C[C@H](Oc1cc2cc(F)cc(F)c2nc1N)c1cc(C(=O)O)ccc1-n1cccn1 :: 0.4 ×10⁻⁶ cm/s

Please look at the following molecule next.
Input: May I ask what Papp A→B has been recorded for C[C@H](Oc1cc2cc(F)ccc2nc1N)c1[nH]c(=O)ccc1-n1cccn1 ?
Output: 0.1 ×10⁻⁶ cm/s

----------
# protocol_notes: Thermodynamic solubility of the compound
# Type: physicochemical
# experimental_context: read-out: Therm_solubility
measurement_type: solubility thermodynamic (µg/mL)
# value in µg/mL; strip the unit string

C[C@H](Oc1cc2cc(C(N)=O)cc(F)c2nc1N)c1ncc(F)cc1-n1cccn1 :: 0.6

Please look at the following compound next.
Input: May I ask what solubility thermodynamic has been recorded for C[C@H](Oc1cc2cc(C(N)=O)ccc2nc1N)c1ncc(F)cc1-n1cccn1 ?
Output: 5.3

----------
# target: Cytochrome P450 2C9 (Homo sapiens, UniProt P11712)
# Sequence (P11712 whole entry): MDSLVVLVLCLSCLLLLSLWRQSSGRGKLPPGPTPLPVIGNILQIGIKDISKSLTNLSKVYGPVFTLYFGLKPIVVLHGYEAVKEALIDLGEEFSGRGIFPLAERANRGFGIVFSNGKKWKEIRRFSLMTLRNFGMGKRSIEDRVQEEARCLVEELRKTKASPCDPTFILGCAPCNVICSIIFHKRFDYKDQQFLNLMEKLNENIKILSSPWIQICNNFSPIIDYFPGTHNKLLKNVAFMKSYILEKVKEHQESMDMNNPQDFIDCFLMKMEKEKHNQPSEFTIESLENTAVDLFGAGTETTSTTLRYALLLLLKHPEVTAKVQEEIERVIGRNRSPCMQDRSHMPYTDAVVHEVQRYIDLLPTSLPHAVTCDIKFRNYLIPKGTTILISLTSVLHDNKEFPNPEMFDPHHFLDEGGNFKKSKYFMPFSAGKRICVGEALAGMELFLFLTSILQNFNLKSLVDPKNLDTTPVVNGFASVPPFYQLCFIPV
measurement_type: pIC50
Conceptually, pIC50 converts a concentration in mol/L into minus its log10.

Input: May I ask what pIC50 has been recorded for C[C@H](Oc1cc2cc(F)cc(F)c2nc1N)c1cc(C(=O)O)ccc1-n1cccn1 ?
Output: 4.69

----------
# target: Voltage-gated inwardly rectifying potassium channel KCNH2 (Homo sapiens, UniProt Q12809)
# Sequence (Q12809 whole entry): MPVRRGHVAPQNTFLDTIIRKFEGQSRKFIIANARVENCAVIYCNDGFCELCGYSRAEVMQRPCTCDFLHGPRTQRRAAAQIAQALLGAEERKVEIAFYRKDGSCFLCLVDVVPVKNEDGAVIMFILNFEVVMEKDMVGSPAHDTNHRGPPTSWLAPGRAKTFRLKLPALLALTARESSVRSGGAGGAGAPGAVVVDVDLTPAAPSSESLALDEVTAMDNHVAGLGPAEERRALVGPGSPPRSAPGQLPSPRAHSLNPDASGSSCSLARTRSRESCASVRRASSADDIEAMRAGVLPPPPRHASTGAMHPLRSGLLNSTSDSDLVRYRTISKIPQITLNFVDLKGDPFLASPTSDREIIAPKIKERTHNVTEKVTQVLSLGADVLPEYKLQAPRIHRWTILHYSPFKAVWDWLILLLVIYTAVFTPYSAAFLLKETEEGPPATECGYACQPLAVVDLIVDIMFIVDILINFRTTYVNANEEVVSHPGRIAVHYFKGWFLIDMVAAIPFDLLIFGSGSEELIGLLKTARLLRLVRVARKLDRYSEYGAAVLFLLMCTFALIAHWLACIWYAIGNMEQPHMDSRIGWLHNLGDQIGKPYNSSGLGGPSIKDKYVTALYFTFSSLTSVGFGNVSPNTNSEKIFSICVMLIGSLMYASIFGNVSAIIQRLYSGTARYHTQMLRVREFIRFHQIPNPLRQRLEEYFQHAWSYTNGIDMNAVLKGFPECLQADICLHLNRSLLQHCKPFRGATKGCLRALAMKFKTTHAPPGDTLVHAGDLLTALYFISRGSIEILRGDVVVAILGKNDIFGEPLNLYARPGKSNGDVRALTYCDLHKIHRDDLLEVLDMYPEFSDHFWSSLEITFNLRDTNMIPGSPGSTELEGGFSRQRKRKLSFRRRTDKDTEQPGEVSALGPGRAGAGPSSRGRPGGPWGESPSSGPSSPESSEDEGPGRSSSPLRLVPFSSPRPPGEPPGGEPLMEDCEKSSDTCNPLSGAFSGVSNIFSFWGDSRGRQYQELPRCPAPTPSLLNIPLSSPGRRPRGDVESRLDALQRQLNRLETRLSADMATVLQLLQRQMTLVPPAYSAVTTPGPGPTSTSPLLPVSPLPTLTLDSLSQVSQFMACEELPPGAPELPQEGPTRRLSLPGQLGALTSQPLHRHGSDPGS
# reported pKi; entries follow
Conceptually, pKi converts a concentration in mol/L into minus its log10.

Input: May I ask what pKi has been recorded for C[C@H](Oc1cc2cc(F)cc(F)c2nc1N)c1cc(C(=O)O)ccc1-n1cccn1 ?
Output: 4.40

Input: Same for Cc1n[nH]cc1-c1cnc(N)c(O[C@@H](C)c2cc(F)ccc2-n2cccn2)c1
Output: 5.42

Input: Same for C[C@H](Oc1cc2cc(C(N)=O)ccc2nc1N)c1cc(F)ccc1-n1cccn1
Output: 4.62

----------
# protocol_notes: Protein binding in human RBC assessed as unbound fraction at 1 mM
# Assay type: ADME, tissue-based, Erythrocyte
# experimental_context: red blood cells (RBC)
# reported fraction unbound at 1000 µM; entries follow
// response body must contain only the number

C[C@H](Oc1cc2cc(F)ccc2nc1N)c1[nH]c(=O)ccc1-n1cccn1 :: 0.000598

Input: May I ask what fraction unbound at 1000 µM has been recorded for C[C@H](Oc1cc2cc(F)cc(F)c2nc1N)c1cc(C(=O)O)ccc1-n1cccn1 ?
Output: 0.000577

----------
# protocol_notes: Binding affinity to purified human cross-linked HbS by SPR analysis
# reported pKd; entries follow
Conceptually, pKd converts a concentration in mol/L into minus its log10.

Recorded results for 8 compounds are shown here.
C[C@H](Oc1cc2cc(C(N)=O)ccc2nc1N)c1nc(OCCO)ccc1-n1cccn1 :: 6.85
C[C@H](Oc1cc2ccccc2nc1N)c1cc(F)ccc1-n1cccn1 :: 5.82
C[C@H](Oc1cc2cc(C#N)ccc2nc1N)c1cc(F)c(F)cc1-n1cccn1 :: 6.42
C[C@H](Oc1cc2cc(F)ccc2nc1N)c1cc(F)c(F)cc1-n1cccn1 :: 6.94
C[C@H](Oc1cc2cc(C(N)=O)ccc2nc1N)c1ncc(F)cc1-n1cccn1 :: 6.74
C[C@H](Oc1cc2cc(C(N)=O)ccc2nc1N)c1cc2[nH]ncc2cc1-n1cccn1 :: 7.44
C[C@H](Oc1cc2cc(C(N)=O)cc(F)c2nc1N)c1ncc(F)cc1-n1cccn1 :: 7.17
C[C@H](Oc1cc2cc(F)ccc2nc1N)c1cc2c(cnn2CCO)cc1-n1cccn1 :: 7.70

Input: May I ask what pKd has been recorded for C[C@H](Oc1cc2c(F)ccc(F)c2nc1N)c1cc(C(=O)O)ccc1-n1cccn1 ?
Output: 7.19

Input: Same for C[C@H](Oc1cc2cc(F)ccc2nc1N)c1[nH]c(=O)ccc1-n1cccn1
Output: 7.47

----------
# target: UniProt P11712
# protocol_notes: Inhibition of CYP2C9 (unknown origin) at 3 uM relative to control
# Type: ADME
measurement_type: inhibition at 3 µM

Input: May I ask what inhibition at 3 µM has been recorded for Cc1n[nH]cc1-c1cnc(N)c(O[C@@H](C)c2cc(F)ccc2-n2cccn2)c1 ?
Output: < 50%

----------
# protocol_notes: Intrinsic clearance in human hepatocytes assessed per million cells
# Type: ADME, cell-based, Hepatocyte
# experimental_context: read-out: CLH
measurement_type: log10 of hepatocyte CLint (log10 of the value in µL/min/1e6 cells)
Please be aware that the numbers have been log10-transformed from hepatocyte CLint in µL/min/1e6 cells.

C[C@H](Oc1cc2cc(C(N)=O)ccc2nc1N)c1nc(OCCO)ccc1-n1cccn1 :: 0.48
C[C@H](Oc1cc2cc(F)ccc2nc1N)c1[nH]c(=O)ccc1-n1cccn1 :: 1.26
C[C@H](Oc1cc2cc(C#N)ccc2nc1N)c1cc(F)ccc1-n1cccn1 :: 1.60
C[C@H](Oc1cc2cc(C#N)ccc2nc1N)c1cc(F)c(F)cc1-n1cccn1 :: 1.38
C[C@H](Oc1cc2cc(F)cc(F)c2nc1N)c1[nH]c(=O)ccc1-n1cccn1 :: 1.23
C[C@H](Oc1cc2cc(F)ccc2nc1N)c1cc(C(=O)O)ccc1-n1cccn1 :: 0.60
C[C@H](Oc1cc2cc(C(N)=O)ccc2nc1N)c1cc2c(cnn2CCO)cc1-n1cccn1 :: 0.60

Input: May I ask what log10 of hepatocyte CLint has been recorded for C[C@H](Oc1cc2cc(F)ccc2nc1N)c1cc2c(cnn2CC(=O)O)cc1-n1cccn1 ?
Output: 1.32

----------
# protocol_notes: Binding affinity to purified human cross-linked HbS by SPR analysis
pKd: −log10 of the molar value.
pKd of 7 or higher: 1. Under 7: -1.

C[C@H](Oc1cc2cc(F)cc(F)c2nc1N)c1cc(C(=O)O)ccc1-n1cccn1 :: 1
C[C@H](Oc1cc2cc(F)ccc2nc1N)c1cc2c(cnn2CC(=O)O)cc1-n1cccn1 :: 1
C[C@H](Oc1cc2cc(C#N)ccc2nc1N)c1cc(F)ccc1-n1cccn1 :: -1

Input: Please indicate if the recorded pKd for C[C@H](Oc1cc2cc(F)cc(F)c2nc1N)c1[nH]c(=O)ccc1-n1cccn1 meets or exceeds 7.
Output: 1

----------
# target: UniProt Q12809
# protocol_notes: Inhibition of human ERG by patch clamp assay
# reported pIC50; entries follow
Conceptually, pIC50 converts a concentration in mol/L into minus its log10.

C[C@H](Oc1cc2cc(F)ccc2nc1N)c1[nH]c(=O)ccc1-n1cccn1 [PF-07059013] :: 4.37

Please look at the following compound next.
Input: May I ask what pIC50 has been recorded for C[C@H](Oc1cc2cc(F)cc(F)c2nc1N)c1cc(C(=O)O)ccc1-n1cccn1 ?
Output: 3.84

----------
# protocol_notes: Apparent permeability in MDCK cells
# Type: ADME, cell-based, Canis lupus familiaris
# experimental_context: dog
# reported Papp; entries follow
# value in ×10⁻⁶ cm/s; strip the unit string

Recorded results for 3 molecules are shown here.
C[C@H](Oc1cc2cc(C(N)=O)ccc2nc1N)c1cc2[nH]ncc2cc1-n1cccn1 :: 1.4
C[C@H](Oc1cc2cc(F)cc(F)c2nc1N)c1cc(C(=O)O)ccc1-n1cccn1 :: 3
Cc1n[nH]cc1-c1cnc(N)c(O[C@@H](C)c2cc(F)ccc2-n2cccn2)c1 :: 24

Please look at the following molecule next.
Input: May I ask what Papp has been recorded for C[C@H](Oc1cc2cc(F)ccc2nc1N)c1[nH]c(=O)ccc1-n1cccn1 ?
Output: 20

----------
# target: CYP2D6 (Homo sapiens)
# Sequence (P10635 whole entry): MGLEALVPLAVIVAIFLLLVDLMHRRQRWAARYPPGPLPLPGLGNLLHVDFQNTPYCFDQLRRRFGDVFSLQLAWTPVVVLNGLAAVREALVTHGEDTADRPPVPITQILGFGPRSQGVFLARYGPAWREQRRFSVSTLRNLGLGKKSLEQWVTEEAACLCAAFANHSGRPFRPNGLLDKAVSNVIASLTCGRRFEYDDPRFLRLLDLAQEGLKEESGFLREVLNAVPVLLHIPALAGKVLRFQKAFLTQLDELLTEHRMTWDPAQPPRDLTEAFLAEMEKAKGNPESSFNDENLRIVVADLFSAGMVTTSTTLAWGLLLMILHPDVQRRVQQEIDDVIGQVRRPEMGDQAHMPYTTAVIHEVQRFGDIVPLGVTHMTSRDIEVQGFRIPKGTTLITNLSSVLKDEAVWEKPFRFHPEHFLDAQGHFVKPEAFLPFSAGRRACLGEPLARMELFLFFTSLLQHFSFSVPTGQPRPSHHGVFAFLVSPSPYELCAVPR
# protocol_notes: Inhibition of CYP2D6 (unknown origin) at 3 uM relative to control
# Assay type: ADME
measurement_type: inhibition at 3 µM

Input: May I ask what inhibition at 3 µM has been recorded for Cc1n[nH]cc1-c1cnc(N)c(O[C@@H](C)c2cc(F)ccc2-n2cccn2)c1 ?
Output: < 50%

----------
# protocol_notes: Kinetic solubility of the compound
# Type: physicochemical
# experimental_context: read-out: Kinetic_solubility
measurement_type: solubility kinetic (µg/mL)
# value in µg/mL; strip the unit string

C[C@H](Oc1cc2cc(C(N)=O)cc(F)c2nc1N)c1ncc(F)cc1-n1cccn1 :: 0.5

Input: May I ask what solubility kinetic has been recorded for C[C@H](Oc1cc2cc(C(N)=O)ccc2nc1N)c1ncc(F)cc1-n1cccn1 ?
Output: 28.5

----------
# target: CYP3A4 (Homo sapiens, UniProt P08684)
# Sequence (P08684 whole entry): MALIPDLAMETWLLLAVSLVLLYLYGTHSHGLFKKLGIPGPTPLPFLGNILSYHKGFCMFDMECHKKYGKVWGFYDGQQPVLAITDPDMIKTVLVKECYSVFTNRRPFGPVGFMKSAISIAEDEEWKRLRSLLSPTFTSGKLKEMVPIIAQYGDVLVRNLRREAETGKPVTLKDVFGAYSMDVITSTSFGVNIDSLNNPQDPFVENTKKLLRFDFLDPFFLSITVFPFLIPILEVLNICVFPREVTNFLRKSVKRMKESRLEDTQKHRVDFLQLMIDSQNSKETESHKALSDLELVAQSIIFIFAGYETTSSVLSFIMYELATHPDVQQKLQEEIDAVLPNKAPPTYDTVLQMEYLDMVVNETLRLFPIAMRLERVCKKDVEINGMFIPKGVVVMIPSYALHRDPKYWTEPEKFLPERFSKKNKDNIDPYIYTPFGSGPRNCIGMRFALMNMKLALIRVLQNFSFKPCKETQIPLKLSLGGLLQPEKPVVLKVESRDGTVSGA
# protocol_notes: Inhibition of CYP3A4 (unknown origin) at 3 uM relative to control
# Format: ADME
measurement_type: inhibition at 3 µM

Input: Quick check: inhibition at 3 µM on CYP3A4 (Homo sapiens, UniProt P08684), item Cc1n[nH]cc1-c1cnc(N)c(O[C@@H](C)c2cc(F)ccc2-n2cccn2)c1 ?
Output: < 50%

----------
# protocol_notes: Binding affinity to purified human cross-linked HbS by SPR analysis
measurement_type: Kd (µM)
# value in µM; strip the unit string

Recorded results for 3 molecules are shown here.
C[C@H](Oc1cc2cc(C(N)=O)ccc2nc1N)c1cc(F)ccc1-n1cccn1 :: 0.402
C[C@H](Oc1cc2cc(C(N)=O)ccc2nc1N)c1cc(F)c(F)cc1-n1cccn1 :: 0.122
Cc1n[nH]cc1-c1cnc(N)c(O[C@@H](C)c2cc(F)ccc2-n2cccn2)c1 :: 3.6

Please look at the following molecule next.
Input: May I ask what Kd has been recorded for C[C@H](Oc1cc2cc(C(N)=O)ccc2nc1N)c1cc2c(cnn2CCO)cc1-n1cccn1 ?
Output: 0.059
